System: VDR:RXRa (NR concentration 270 nM, RXRa partner concentration 90 nM)
Assay: PBM binding z-score (relative to random genomic background probes); higher = stronger binding; sequences stand for … in GC…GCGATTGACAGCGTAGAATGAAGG
Threshold rule: PBM binding z-score greater than or equal to 3 is Met; below that, Not met.

# count of solved cases: 6
- Biopolymer Sequence: "CAACCTAGGTCACAGAGGTCAAAGTCCGTGCGTA"
  Category Label: "Met"
- Biopolymer Sequence: "TGTAAAAGTTCAAAGGTAACGTAAGTATCCACAC"
  Category Label: "Met"
- Biopolymer Sequence: "TCTTGTAGATCAAGCGGGTTAAGAAAGCCTGAGT"
  Category Label: "Not met"
- Biopolymer Sequence: "TGTCAAAGTTCACAGGTAACGTAAGTATCCACAC"
  Category Label: "Met"
- Biopolymer Sequence: "TGTCAAAGTTCAAAGGTAACGTATGTATCCACAC"
  Category Label: "Met"
- Biopolymer Sequence: "ACTCGGACGACAAAGGTCAGAGCTACGCCAGTGA"
  Category Label: "Not met"

input: Is PBM binding z-score for `GCTGCTAGGTCAACTGATGGTTAGCTAAAGCTCG` at or above 3?
output: Not met

input: Same question for `TCTCGGAGGACACAAAAGGTCAGAGCTCGACATC` please.
output: Met

input: Same question for `GCTGCTAGGGCAACTGATGGTCAGCTAAAGCTCG` please.
output: Not met

input: Same question for `TCTATTAGCTGAAGGGCAACCGACGAGTCCGTTT` please.
output: Not met

input: Same question for `TCGATTAGTTGATTAGGGCAACCGAAACAGCGGA` please.
output: Not met

###

Test system: LXRa:RXRa (NR concentration 270 nM, RXRa partner concentration 90 nM)
Experiment: PBM binding z-score (relative to random genomic background probes); higher = stronger binding; sequences stand for … in GC…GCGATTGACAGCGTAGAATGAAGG
Threshold rule: PBM binding z-score greater than or equal to 1 is Fulfilled; below that, Not fulfilled.

# count of solved cases: 3
- Biopolymer Sequence: "CGAACTAGGTCATACAGGACAGTGAATACATTGA"
  Target: "LXRa:RXRa (NR concentration 270 nM, RXRa partner concentration 90 nM)"
  Category Label: "Fulfilled"
- Biopolymer Sequence: "GATACAGGGTTAAGGCCAGAGTACGCGTATTGAT"
  Target: "LXRa:RXRa (NR concentration 270 nM, RXRa partner concentration 90 nM)"
  Category Label: "Not fulfilled"
- Biopolymer Sequence: "CGTCGAAGGTCAGCAGGTCAGTGAAAGCGACGTG"
  Target: "LXRa:RXRa (NR concentration 270 nM, RXRa partner concentration 90 nM)"
  Category Label: "Fulfilled"

input: Is PBM binding z-score for `TCTTGTAGATCAAGCAGTTTAAGAAAGCCTGAGT` at or above 1?
output: Not fulfilled

input: Same question for `CCTACTGGGCCATTCAGAGCTCATTGATCATATG` please.
output: Not fulfilled

###

# PBM binding z-score listing for each entry below
Tested on: RARg homodimer (NR concentration 270 nM)
Experiment: PBM binding z-score (relative to random genomic background probes); higher = stronger binding; sequences stand for … in GC…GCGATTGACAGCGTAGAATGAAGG
In your answer, state the number alone without any accompanying words.

Use these answered entries as a reference point.
- Biopolymer Sequence: "TTACCAAGGTGAGCTGAGGTCTTTGATCCAACTC"
  Target: "RARg homodimer (NR concentration 270 nM)"
  Numeric Result: 0.384
- Biopolymer Sequence: "CGTCCAAGGTCAATGCTAGGTCAGTGGAAGCATT"
  Target: "RARg homodimer (NR concentration 270 nM)"
  Numeric Result: 6.88
- Biopolymer Sequence: "ATCTCTAGGTAAAGATAGTTCAGTGACTGCAAAT"
  Target: "RARg homodimer (NR concentration 270 nM)"
  Numeric Result: 0.542
- Biopolymer Sequence: "GCTCGGAGGACAAGGTAAGAGCTTTGTCCGTAGA"
  Target: "RARg homodimer (NR concentration 270 nM)"
  Numeric Result: 0.491
- Biopolymer Sequence: "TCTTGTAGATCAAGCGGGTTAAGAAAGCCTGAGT"
  Target: "RARg homodimer (NR concentration 270 nM)"
  Numeric Result: -0.546
- Biopolymer Sequence: "CAAACTAGGACAAGAGGTCAAAGTCCGCTTCCCG"
  Target: "RARg homodimer (NR concentration 270 nM)"
  Numeric Result: 4.63

Now turn to the next sequence.
input: So what does the record say about PBM binding z-score for `CAGCCTAGGTCAGGGCAAGTATAGGAGGAACGTT` ?
output: 4.42

###

Test system: LXRb:RXRa (NR concentration 270 nM, RXRa partner concentration 90 nM)
Assay: PBM binding z-score (relative to random genomic background probes); higher = stronger binding; sequences stand for … in GC…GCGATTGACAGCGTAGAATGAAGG
Threshold rule: PBM binding z-score greater than or equal to 1 is met; below that, not met.

input: Is PBM binding z-score for `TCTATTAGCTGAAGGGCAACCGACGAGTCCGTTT` at or above 1?
output: not met

input: Same question for `TCTTGTAGATCAATAGAGGTAAAGAAAGTGCGCT` please.
output: not met

input: Same question for `ATCGAAAGGTCTAGGTGAGTATAGAGAAAGGGAA` please.
output: not met

###

Test system: PPARg:RXRa 30nM:10nM, anti-RXR (NR concentration 30 nM, RXRa partner concentration 10 nM)
Experiment: PBM binding z-score (relative to random genomic background probes); higher = stronger binding; sequences stand for … in GC…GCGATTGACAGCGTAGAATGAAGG
# PBM binding z-score listing for each entry below
In your answer, state the number alone without any accompanying words.

Use these answered entries as a reference point.
- Biopolymer Sequence: "ATCTCTAGGTAAAGTTCAGTAAAAGATCGATAGA"
  PBM binding z-score: 2.52
- Biopolymer Sequence: "ATATGTAGGTTACATCCGGGTCCTTCAGGCTATG"
  PBM binding z-score: 2
- Biopolymer Sequence: "CATACAGGGTCAGCTAGGCCATAGTAGGGACGGC"
  PBM binding z-score: 1.21
- Biopolymer Sequence: "ACTTACGGGTCGACGAGGTTATAGCACGCGTATA"
  PBM binding z-score: 0.608
- Biopolymer Sequence: "ACTCGGAGGACAAAGGTCAGAGGTACGCCAGTGA"
  PBM binding z-score: 4.88

input: So what does the record say about PBM binding z-score for `CTCGAAAGGTCGGTTGAGGTGAGTATCCGGATAA` ?
output: -0.0688

input: Same question for `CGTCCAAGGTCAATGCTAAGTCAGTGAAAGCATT` please.
output: 0.983

input: Same question for `GCATATGGGTAATACAAGGTGAAAGTCCGATTGT` please.
output: 0.412

input: Same question for `TCATATAGGTAAAGGTGAAATTCGAACGATATGA` please.
output: 4.22

input: Same question for `CTACCAAGGTGAACAAGGTCGTTGGTTACTATTC` please.
output: -0.194

input: Same question for `CGAACTAGGTCAGAACAGGACAGCGAAGGATGAT` please.
output: 1.79

###

# PBM binding z-score listing for each entry below
Tested on: PPARa:RXRa (NR concentration 270 nM, RXRa partner concentration 90 nM)
Assay: PBM binding z-score (relative to random genomic background probes); higher = stronger binding; sequences stand for … in GC…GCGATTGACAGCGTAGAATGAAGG
In your answer, state the number alone without any accompanying words.

input: So what does the record say about PBM binding z-score for `ATCGAAAGGTCGACGAGGTGAGTATCCACCGTTT` ?
output: 4.28

input: Same question for `TTACCAAGGTTAAGGTCGTTGATCCCTCTGTAGA` please.
output: 3.38

input: Same question for `ACTATTAGTTGACTTAGGGCGACCGATACGACGC` please.
output: -0.104

input: Same question for `ATATGTAGGTTAGCTGGGGTCATGCAGACTAGGC` please.
output: 5.44

input: Same question for `GCGACGGGGGCATCAGCAGGTTACCATAACTTAA` please.
output: 4.19

input: Same question for `ATCTCTAGGTAAGATTCAGTTCAGTGAAGAACGC` please.
output: 0.179

input: Same question for `TCTGGTTGGTCACGGAGGTCACACACGACGGGTA` please.
output: 3.99

input: Same question for `CCTACTGGGCCATTCAAAGGTCATTGATCATATG` please.
output: 4.43

###

Tested on: LXRa homodimer (NR concentration 270 nM)
Assay: PBM binding z-score (relative to random genomic background probes); higher = stronger binding; sequences stand for … in GC…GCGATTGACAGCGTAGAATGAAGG
Threshold rule: PBM binding z-score greater than or equal to -0.07 is criterion met; below that, criterion not met.

- Biopolymer Sequence: "TCTGCTAGGGCAGTTGGTCAGCTAACGAGCTGCC"
  Target: "LXRa homodimer (NR concentration 270 nM)"
  Category Label: "criterion not met"
- Biopolymer Sequence: "TCTGCTAGGTCAACGATGGCCAGCTAATCTGCTA"
  Target: "LXRa homodimer (NR concentration 270 nM)"
  Category Label: "criterion not met"
- Biopolymer Sequence: "CCTTACGGGCCACTGACAGGTTATAGCATTTGGA"
  Target: "LXRa homodimer (NR concentration 270 nM)"
  Category Label: "criterion met"

input: Is PBM binding z-score for `GCTTCTAGATCAAGGTTAAGAAAGACTAAGCTAA` at or above -0.07?
output: criterion not met

input: Same question for `ATATGTAGGTTACATTCGGGTCATTCAGGCTATG` please.
output: criterion met

input: Same question for `TCTTGTAGAACAAAGGTTAAGAAAGCCGAAGCCT` please.
output: criterion met

input: Same question for `CCTACTGGGCCAAGATCATTGATCAGTCAAAGCA` please.
output: criterion not met

input: Same question for `TATACAGGGGCAAAGGCCAGAGTACGAATGTCGA` please.
output: criterion met

input: Same question for `TGAATGAGGTTACAGATCAGGGAACGTGGCGTCG` please.
output: criterion not met

input: Same question for `GGAACGAAGGCAAGTTGATAGCAGAGTTTGATGG` please.
output: criterion not met

input: Same question for `GCTACTTGGTCAGTAAAAGGTCACACACCGGTCG` please.
output: criterion met

input: Same question for `CTCGAAAGGTAGGTTGAGGTGAGTATACGGATAA` please.
output: criterion not met
